Numbers sourced from patent US4061767A.

procedure-summary: in vivo
details: mouse, po, per os, N.M.R.I. mice, observation time 7 days
metric: LD50 at 168 h (mg/kg)

compound="CC(O)=C(C#N)C(=O)Nc1cccc(C(F)(F)F)c1 [compound 11]" metric="LD50 at 168 h" meas_value=660
compound="CC(O)=C(C#N)C(=O)Nc1cccc(Cl)c1 [No. 2]" metric="LD50 at 168 h" meas_value=585

###

procedure-summary: in vivo
details: rat, po, per os, female Wistar-Lewis rats, observation time 7 days
metric: LD50 at 168 h (mg/kg)

compound="CC(O)=C(C#N)C(=O)Nc1cccc(Cl)c1 [No. 2]" meas_value=445

###

procedure-summary: in vivo
details: rat, po, per os, Sprague-Dawley rats used as test animals (footnote 2), observation time 7 days
metric: LD50 at 168 h (mg/kg)

compound_smiles=CC(O)=C(C#N)C(=O)Nc1cccc(C(F)(F)F)c1 value_units=mg/kg meas_value=670
